target.entity: KSP motor domain (Homo sapiens, UniProt P52732)
Sequence (P52732 18-359 limits assumed): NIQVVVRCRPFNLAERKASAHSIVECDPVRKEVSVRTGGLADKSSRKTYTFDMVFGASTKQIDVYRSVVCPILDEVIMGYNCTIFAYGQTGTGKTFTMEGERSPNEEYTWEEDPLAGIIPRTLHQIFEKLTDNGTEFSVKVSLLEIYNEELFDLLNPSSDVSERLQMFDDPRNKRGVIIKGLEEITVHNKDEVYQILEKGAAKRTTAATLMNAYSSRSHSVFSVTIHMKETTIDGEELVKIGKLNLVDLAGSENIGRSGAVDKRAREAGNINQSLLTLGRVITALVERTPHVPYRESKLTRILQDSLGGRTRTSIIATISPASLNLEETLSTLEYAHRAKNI
experimental.protocol: biochemical
measurement.conditions: KSP inhibitory activity, end-point assay; class symbols (Table 1); read-out: IC50
Recorded IC50 values for a group of molecules are listed next.

Below are worked cases with known answers.
# molecule, target.entity, readout, result
data = [
    ("CC(C)(C)[C@@H]1CCc2nc3sc(C(=O)N[C@H](CN)c4cccc(NC(=O)c5ncc[nH]5)c4)cc3cc2C1", "KSP motor domain (Homo sapiens, UniProt P52732)", "IC50", "< 100 nM"),
    ("CC(C)(C)C1CCc2nc3sc(C(=O)N[C@@H](Cc4ccccc4)C(=N)N)cc3cc2C1 (stereo partly drawn)", "KSP motor domain (Homo sapiens, UniProt P52732)", "IC50", "1000 to 10000 nM"),
    ("CC(C)(C)C1CCc2nc3sc(C(=O)NC(CN)c4ccc(C(N)=O)cc4)cc3cc2C1 (stereo not drawn)", "KSP motor domain (Homo sapiens, UniProt P52732)", "IC50", "< 100 nM"),
    ("CCNC(=O)c1cc2cc3c(nc2s1)CCC(C(C)(C)C)C3 (stereo not drawn)", "KSP motor domain (Homo sapiens, UniProt P52732)", "IC50", "1000 to 10000 nM"),
    ("CC(C)(C)[C@@H]1CCc2nc3sc(C(=O)N[C@H](CN)c4ccc(NC(=O)c5cocn5)cc4)cc3cc2C1", "KSP motor domain (Homo sapiens, UniProt P52732)", "IC50", "< 100 nM"),
    ("CC(C1CCc2nc3sc(C#N)c(N)c3cc2C1)C(C)(C)C (stereo not drawn)", "KSP motor domain (Homo sapiens, UniProt P52732)", "IC50", "> 10000 nM"),
    ("N#Cc1sc2nc3c(cc2c1N)CC(C1CCCC1)CC3 (stereo not drawn)", "KSP motor domain (Homo sapiens, UniProt P52732)", "IC50", "> 10000 nM"),
    ("CC1(C2CCc3nc4sc(C#N)c(N)c4cc3C2)CCCC1 (stereo not drawn)", "KSP motor domain (Homo sapiens, UniProt P52732)", "IC50", "100 to 1000 nM"),
]

IN: IC50 of CC(C)(C)C1CCc2nc3sc(S(C)(=O)=O)c(O)c3cc2C1 (stereo not drawn) on KSP motor domain (Homo sapiens, UniProt P52732)?
OUT: > 10000 nM

IN: Param item: CC(C)(C)C1CCCc2nc3sc(C#N)cc3cc2C1 (stereo not drawn)
OUT: < 100 nM

IN: Param item: Cc1cnc(C(=O)Nc2cccc([C@@H](CN)NC(=O)c3cc4cc5c(nc4s3)CC[C@@H](C(C)(C)C)C5)c2)cn1
OUT: < 100 nM

IN: Param item: CCOC(=O)Nc1cccc(C(CN)NC(=O)c2cc3cc4c(nc3s2)CCC(C(C)(C)C)C4)c1 (stereo not drawn)
OUT: < 100 nM

IN: Param item: CC1Cc2nc3sc(C#N)c(N)c3cc2C(C)C1 (stereo not drawn)
OUT: > 10000 nM

IN: Param item: CC(C)(C)C1CCc2cc3c(N)c(C#N)sc3nc2CC1 (stereo not drawn)
OUT: 1000 to 10000 nM

IN: Param item: CC(C)(C)C1CCc2nc3sc(C(=O)N4CCNCC4)cc3cc2C1 (stereo not drawn)
OUT: > 10000 nM

----------
Recorded IC50 values for a group of compounds are listed next.
target.entity: KSP motor domain (Homo sapiens, UniProt P52732)
experimental.protocol: biochemical
measurement.conditions: KSP inhibitory activity, end-point assay; class symbols (Table 1); read-out: IC50

IN: What value of measured IC50 is listed for CC(C)(C)C1CCc2nc3sc(C(N)=O)cc3cc2C1 (single isomer, unassigned; (-)) [Example 67] ?
OUT: 100 to 1000 nM

IN: Param item: N#Cc1sc2nc3c(cc2c1N)CN(CCC(F)(F)F)CC3 [Example 57]
OUT: > 10000 nM

IN: Param item: N#Cc1sc2nc3c(cc2c1N)CC(C12CC4CC(CC(C4)C1)C2)CC3 (stereo not shown) [Example 4]
OUT: > 10000 nM

IN: Param item: CN1CCN(C(=O)Nc2cccc([C@@H](CN)NC(=O)c3cc4cc5c(nc4s3)CC[C@@H](C(C)(C)C)C5)c2)CC1 [Example 275]
OUT: < 100 nM

----------
target.entity: KSP motor domain (Homo sapiens, UniProt P52732)
Sequence (P52732 18-359 limits assumed): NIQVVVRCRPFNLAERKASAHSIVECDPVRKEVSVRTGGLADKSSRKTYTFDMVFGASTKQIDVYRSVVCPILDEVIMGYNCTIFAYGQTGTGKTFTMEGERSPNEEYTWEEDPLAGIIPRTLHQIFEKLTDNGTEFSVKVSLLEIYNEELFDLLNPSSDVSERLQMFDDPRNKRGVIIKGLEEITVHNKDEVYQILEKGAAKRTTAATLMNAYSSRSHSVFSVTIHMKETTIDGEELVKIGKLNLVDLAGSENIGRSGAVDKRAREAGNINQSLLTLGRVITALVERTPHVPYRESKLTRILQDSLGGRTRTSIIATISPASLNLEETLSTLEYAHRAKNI
experimental.protocol: biochemical
measurement.conditions: exact IC50 values, end-point assay (Table 2); read-out: IC50
Recorded pIC50 values for a group of molecules are listed next.
Answer as the number alone; pIC50 is minus log10 of concentration in mol/L.

Below are worked cases with known answers.
# molecule, readout, numeric.result
records = [
    ("CC(C)(C)C1CCc2nc3sc(C(=O)NCCN)cc3cc2C1 (stereo not shown) [Example 99]", "pIC50", 7.66),
    ("C[C@@H]1CNCCN1C(=O)Nc1cccc([C@@H](CN)NC(=O)c2cc3cc4c(nc3s2)CC[C@@H](C(C)(C)C)C4)c1 [Example 277]", "pIC50", 8.00),
    ("CCC(C)(C)C1CCc2nc3sc(C#N)cc3cc2C1 (stereo not shown) [Example 59]", "pIC50", 7.26),
]

IN: What value of measured pIC50 is listed for CC(C)(C)C1CCc2nc3sc(C(=O)N[C@H](CN)c4ccsc4)cc3cc2C1 (stereo partly shown) [Example 284] ?
OUT: 8.10

IN: Param item: CC(C)(C)[C@@H]1CCc2nc3sc(C(=O)N[C@H](CN)c4cccc(NC(=O)c5csnn5)c4)cc3cc2C1 [Example 257]
OUT: 7.64

IN: Param item: CCC(CN)NC(=O)c1cc2cc3c(nc2s1)CCC(C(C)(C)C)C3 (stereo not shown) [Example 177]
OUT: 7.19

IN: Param item: CC(C)(C)C1CCCc2nc3sc(C#N)c(N)c3cc2C1 (stereo not shown) [Example 40]
OUT: 7.22

IN: Param item: CC(C)(C)[C@@H]1CCc2nc3sc(C(=O)N[C@H](CN)c4ccc(NC(=O)c5ccco5)cc4)cc3cc2C1 [Example 273]
OUT: 7.77

IN: Param item: CC(C)(C)C1CCc2nc3sc(C(N)=O)cc3cc2C1 (single isomer, unassigned; (+)) [Example 68]
OUT: 7.70

----------
Recorded IC50 values for a group of compounds are listed next.
target.entity: KSP motor domain (Homo sapiens, UniProt P52732)
experimental.protocol: biochemical
measurement.conditions: KSP inhibitory activity, end-point assay; class symbols (Table 1); read-out: IC50

Below are worked cases with known answers.
# compound, IC50
records = [
    ("CC(C)(C)C1CCc2nc3sc(C(=O)Nc4cccnc4)cc3cc2C1 (centres unmarked) [Example 226B]", "100 to 1000 nM"),
    ("CC(C)[C@@H](CN)NC(=O)c1cc2cc3c(nc2s1)CCC(C(C)(C)C)C3 (some centres unmarked) [Example 175]", "1000 to 10000 nM"),
]

IN: What value of measured IC50 is listed for CCC(C)(C)C1Cc2cc3c(N)c(C#N)sc3nc2C1 (centres unmarked) [Example 38] ?
OUT: 1000 to 10000 nM

IN: Param item: CC(C)C(C(C)C)C1CCc2nc3sc(C#N)c(N)c3cc2C1 (centres unmarked) [Example 24]
OUT: 1000 to 10000 nM

IN: Param item: COc1ccc([C@@H](CN)NC(=O)c2cc3cc4c(nc3s2)CCC(C(C)(C)C)C4)cc1 (some centres unmarked) [Example 219]
OUT: < 100 nM
